- Tested System: Substance-P receptor (Homo sapiens)
- Test Summary: Ability to displace [125I]-substance P from hNK1 receptor in chinese hamster ovarian (CHO) cells
Reported IC50 values follow for various molecules
Give just the number in nM; leave the unit off.

Input "CS(=O)(=O)N1CC2(CCN(C(=O)[C@H](COCc3cc(C(F)(F)F)cc(C(F)(F)F)c3)NC(=O)c3ccc(Cl)c(Cl)c3)CC2)c2ccccc21" . Output IC50: 1300

Input COc1ccccc1CNC(COCc1ccccc1)C(=O)N1CCC2(CC1)CN(S(C)(=O)=O)c1ccccc12 (stereo not drawn) . Output IC50: 163

Input CS(=O)(=O)N1CC2(CCN(C(=O)C(COCc3ccccc3)NCc3ccc(Cl)cc3)CC2)c2ccccc21 (stereo not drawn) . Output IC50: 27

* * *

- Tested System: Substance-P receptor (Homo sapiens, UniProt P25103)
- Sequence (P25103 whole entry): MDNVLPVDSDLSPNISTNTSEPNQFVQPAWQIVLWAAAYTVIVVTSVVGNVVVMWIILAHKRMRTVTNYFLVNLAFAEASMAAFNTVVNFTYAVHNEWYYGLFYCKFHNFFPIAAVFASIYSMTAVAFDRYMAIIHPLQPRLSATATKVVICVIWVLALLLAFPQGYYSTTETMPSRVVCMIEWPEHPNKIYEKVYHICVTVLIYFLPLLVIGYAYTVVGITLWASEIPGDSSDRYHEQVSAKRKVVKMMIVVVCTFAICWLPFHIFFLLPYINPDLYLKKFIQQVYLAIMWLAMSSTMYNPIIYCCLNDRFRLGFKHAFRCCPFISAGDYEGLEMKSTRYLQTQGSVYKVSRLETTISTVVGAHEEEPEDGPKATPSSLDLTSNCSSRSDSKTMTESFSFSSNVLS
- Test Summary: Ability to displace [125I]-substance P from hNK1 receptor in chinese hamster ovarian (CHO) cells
Reported pIC50 values follow for various compounds
Convention used: pIC50 is expressed as -log10 of the molar concentration.

Below are worked cases with known answers.
| Compound | Tested System | pIC50 |
| --- | --- | --- |
| Cc1cccc(CNC(COCc2ccccc2)C(=O)N2CCC3(CC2)CN(S(C)(=O)=O)c2ccccc23)c1 (stereo not drawn) | Substance-P receptor (Homo sapiens, UniProt P25103) | 7.26 |
| CS(=O)(=O)N1CC2(CCN(C(=O)[C@H](COCc3cccc(Cl)c3)NCc3ccccc3)CC2)c2ccccc21 | Substance-P receptor (Homo sapiens, UniProt P25103) | 8.11 |
| CS(=O)(=O)N1CC2(CCN(C(=O)C(COCc3ccccc3)NC(=O)Cc3ccc(Cl)c(Cl)c3)CC2)c2ccccc21 (stereo not drawn) | Substance-P receptor (Homo sapiens, UniProt P25103) | 7.37 |
| CS(=O)(=O)N1CC2(CCN(C(=O)C(COCc3ccccc3)NCc3c(Cl)cccc3Cl)CC2)c2ccccc21 (stereo not drawn) | Substance-P receptor (Homo sapiens, UniProt P25103) | 6.05 |
| CS(=O)(=O)N1CC2(CCN(C(=O)C(COCc3ccccc3)NCc3cccc(C#N)c3)CC2)c2ccccc21 (stereo not drawn) | Substance-P receptor (Homo sapiens, UniProt P25103) | 6.82 |

Input CS(=O)(=O)N1CC2(CCN(C(=O)C(COCc3ccccc3)NCc3cccc(Cl)c3Cl)CC2)c2ccccc21 (stereo not drawn) . Output pIC50: 6.82

Input COc1cccc(CNC(COCc2ccccc2)C(=O)N2CCC3(CC2)CN(S(C)(=O)=O)c2ccccc23)c1 (stereo not drawn) . Output pIC50: 7.15

Input "CS(=O)(=O)N1CC2(CCN(C(=O)[C@H](CS(=O)(=O)Cc3ccc(Cl)c(Cl)c3)NCc3ccccc3)CC2)c2ccccc21" . Output pIC50: 7.20

* * *

Reported pIC50 values follow for various compounds
- Tested System: Substance-P receptor (Homo sapiens)
- Test Summary: Ability to displace [125I]-substance P from hNK1 receptor in chinese hamster ovarian (CHO) cells
Convention used: pIC50 is expressed as -log10 of the molar concentration.

Below are worked cases with known answers.
| Compound | pIC50 |
| --- | --- |
| CS(=O)(=O)N1CC2(CCN(C(=O)C(COCc3ccccc3)NCc3ccc(Cl)c(Cl)c3)CC2)c2ccccc21 (stereo not drawn) | 7.92 |
| CS(=O)(=O)N1CC2(CCN(C(=O)C(COCc3ccccc3)NCc3cccc(Br)c3)CC2)c2ccccc21 (stereo not drawn) | 7.22 |

Here is another compound to look at.
Item CS(=O)(=O)N1CC2(CCN(C(=O)C(CCc3ccc(Cl)c(Cl)c3)NCc3ccccc3)CC2)c2ccccc21 (stereo not drawn) was tested on Substance-P receptor (Homo sapiens); the reported pIC50 is 6.34

* * *

- Tested System: Substance-P receptor (Homo sapiens)
- Test Summary: Ability to displace [125I]-substance P from hNK1 receptor in chinese hamster ovarian (CHO) cells
Property: pIC50
Convention used: pIC50 is expressed as -log10 of the molar concentration.

| Molecule | pIC50 |
| --- | --- |
| CS(=O)(=O)N1CC2(CCN(C(=O)C(COCc3ccccc3)NCc3cccc(Cl)c3)CC2)c2ccccc21 (centres undefined) | 7.24 |
| CS(=O)(=O)N1CC2(CCN(C(=O)C(COCc3ccccc3)NCc3ccc(Cl)cc3Cl)CC2)c2ccccc21 (centres undefined) | 7.00 |
| CS(=O)(=O)N1CC2(CCN(C(=O)[C@H](COCc3ccccc3Cl)NCc3ccccc3)CC2)c2ccccc21 | 7.44 |

Here is another molecule to look at.
Input CS(=O)(=O)N1CC2(CCN(C(=O)C(COCc3ccccc3)NCc3cc(Cl)cc(Cl)c3)CC2)c2ccccc21 (centres undefined) . Output pIC50: 7.10

* * *

- Tested System: Substance-P receptor (Homo sapiens, UniProt P25103)
- Test Summary: Ability to displace [125I]-substance P from hNK1 receptor in chinese hamster ovarian (CHO) cells
Property: pIC50
Convention used: pIC50 is expressed as -log10 of the molar concentration.

Below are worked cases with known answers.
| Compound | Property | Value |
| --- | --- | --- |
| CN(C)c1ccc(CNC(COCc2ccccc2)C(=O)N2CCC3(CC2)CN(S(C)(=O)=O)c2ccccc23)cc1 (stereo not given) | pIC50 | 7.48 |
| CS(=O)(=O)N1CC2(CCN(C(=O)C(COCc3ccccc3)NS(=O)(=O)c3ccc(Cl)c(Cl)c3)CC2)c2ccccc21 (stereo not given) | pIC50 | 7.06 |

Input "CS(=O)(=O)N1CC2(CCN(C(=O)[C@H](COCc3ccc(Cl)c(Cl)c3)NCc3ccc(Cl)c(Cl)c3)CC2)c2ccccc21" . Output pIC50: 8.77

Input CS(=O)(=O)N1CC2(CCN(C(=O)C(COCc3ccccc3)NCc3ccccc3)CC2)c2ccccc21 (stereo not given) . Output pIC50: 7.10

Input "CS(=O)(=O)N1CC2(CCN(C(=O)[C@H](CSCc3ccc(Cl)c(Cl)c3)NCc3ccccc3)CC2)c2ccccc21" . Output pIC50: 7.89
